# Assay Overview: Incorporation of photocatalysts into TPU films versus process time, absorption spectroscopy against blank film (Beispiele 7a-9b)
# Type: physicochemical
# Test Context: Beispiel 7a neutral Phenalen-1-one; TPU film, Rezeptur 1; process time 1 min; absorption at photocatalyst maximum vs blank film
Measured Endpoint: Abs. 1 min

Please review the entries below; each comes with its answer.
- NCCOc1ccc2c3c(cccc13)C=CC2=O: 0,227
- NCCCOc1ccc2cccc3c2c1C(=O)C=C3: 0,044
- COC(=O)C(C)Oc1ccc(OCC2=Cc3cccc4cccc(c34)C2=O)cc1 (stereo not drawn) [F-19a]: >1

For each listed entry, give its Abs. 1 min.
1. O=C1C(COc2ccc(O)cc2)=Cc2cccc3cccc1c23
2. NCCCOC1=CC(=O)c2cccc3cccc1c23
3. CC(Oc1ccc(OCC2=Cc3cccc4cccc(c34)C2=O)cc1)C(=O)O (stereo not drawn) [F-20a]

Output line:
1. 0,108
2. 0,003
3. 0,020

----------
# Assay Overview: Incorporation of photocatalysts into TPU films versus process time, absorption spectroscopy against blank film (Beispiele 7a-9b)
# Format: physicochemical
# Test Context: Beispiel 7a neutral Phenalen-1-one; TPU film, Rezeptur 1; process time 2 min
For each entry below, report its Abs. 2 min value.

• NCCCOc1ccc2cccc3c2c1C(=O)C=C3 = 0,011
• O=C1C(COc2ccc(O)cc2)=Cc2cccc3cccc1c23 = 0,349
• CC(Oc1ccc(OCC2=Cc3cccc4cccc(c34)C2=O)cc1)C(=O)O (stereo not drawn) [F-20a] = 0,014
• COC(=O)C(C)Oc1ccc(OCC2=Cc3cccc4cccc(c34)C2=O)cc1 (stereo not drawn) [F-19a] = >1

For each listed entry, give its Abs. 2 min.
1. NCCOc1ccc2c3c(cccc13)C=CC2=O
2. NCCCOC1=CC(=O)c2cccc3cccc1c23

Output line:
["0,158", "0,015"]

----------
# Assay Overview: Incorporation of photocatalysts into TPU films versus process time, absorption spectroscopy against blank film (Beispiele 7a-9b)
# Format: physicochemical
# Test Context: Beispiel 7a neutral Phenalen-1-one; TPU film, Rezeptur 1; process time 10 min
For each entry below, report its Abs. 10 min value.

For each listed entry, give its Abs. 10 min.
1. O=C1C(COc2ccc(O)cc2)=Cc2cccc3cccc1c23 [F-12]
2. NCCCOC1=CC(=O)c2cccc3cccc1c23 [F-08]
3. COC(=O)C(C)Oc1ccc(OCC2=Cc3cccc4cccc(c34)C2=O)cc1 (stereo not drawn) [F-19a]

Output line:
1: >1; 2: 0,023; 3: >1

----------
For each entry below, report its Abs. 10 min value.
# Assay Overview: Incorporation of photocatalysts into TPU films versus process time, absorption spectroscopy against blank film (Beispiele 7a-9b)
# Format: physicochemical
# Test Context: Beispiel 7a neutral Phenalen-1-one; TPU film, Rezeptur 1; process time 10 min
# Source text: Im nächsten Schritt wurde die Verwendbarkeit der verschiedene Photokatalysatorklassen, ausgewählt aus Phenalen-1-on-Derivaten, Curcumin-Derivaten und Porphycen-Derivaten, mit unterschiedlichen Eigenschaften - von neutral unpolar bis ionisch polar - auf Ihre Verwendbarkeit und Wirkung im Verfahren untersucht. […]

Please review the entries below; each comes with its answer.
• CC(Oc1ccc(OCC2=Cc3cccc4cccc(c34)C2=O)cc1)C(=O)O (stereo not drawn) [F-20a] = 0,035
• NCCOc1ccc2c3c(cccc13)C=CC2=O = 0,263

Shifting focus to the compound that follows.
Input line: What measured Abs. 10 min goes with `NCCCOc1ccc2cccc3c2c1C(=O)C=C3` ?
Output line: 0,087
